Cited source for all entries: patent US11332459B2

Assignment: determine reported pIC50 for the given compounds.
Biological target: human TRPC6 (Homo sapiens)
Sequence (Q9Y210 1-931): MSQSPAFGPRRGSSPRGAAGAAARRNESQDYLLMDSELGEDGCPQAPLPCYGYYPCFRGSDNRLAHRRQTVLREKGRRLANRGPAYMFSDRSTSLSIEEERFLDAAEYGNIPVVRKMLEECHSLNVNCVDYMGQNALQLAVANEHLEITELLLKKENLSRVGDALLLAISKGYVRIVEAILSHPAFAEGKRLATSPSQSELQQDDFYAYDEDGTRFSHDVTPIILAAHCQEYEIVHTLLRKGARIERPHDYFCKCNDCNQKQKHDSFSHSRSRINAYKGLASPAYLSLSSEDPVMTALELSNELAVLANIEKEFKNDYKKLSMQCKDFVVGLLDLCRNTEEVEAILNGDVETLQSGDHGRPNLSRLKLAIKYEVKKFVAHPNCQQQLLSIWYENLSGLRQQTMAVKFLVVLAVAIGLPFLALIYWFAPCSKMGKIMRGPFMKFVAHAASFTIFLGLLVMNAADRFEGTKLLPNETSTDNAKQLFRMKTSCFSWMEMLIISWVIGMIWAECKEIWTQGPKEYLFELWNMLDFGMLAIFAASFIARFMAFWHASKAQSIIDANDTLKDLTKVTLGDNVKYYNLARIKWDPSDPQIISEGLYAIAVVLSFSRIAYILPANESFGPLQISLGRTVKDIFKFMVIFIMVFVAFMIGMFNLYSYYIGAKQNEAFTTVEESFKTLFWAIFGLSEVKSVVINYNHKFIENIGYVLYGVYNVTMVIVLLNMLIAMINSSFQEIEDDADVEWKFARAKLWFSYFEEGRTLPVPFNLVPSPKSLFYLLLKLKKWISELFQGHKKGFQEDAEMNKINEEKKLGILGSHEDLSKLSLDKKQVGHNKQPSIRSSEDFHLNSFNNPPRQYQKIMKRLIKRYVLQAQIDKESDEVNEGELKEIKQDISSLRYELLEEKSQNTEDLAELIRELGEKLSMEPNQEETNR
Test: TRPC6 calcium flux assay (FLIPR, OAG-stimulated calcium influx)
Details: HEK293 cells stably transfected with human TRPC6, read-out: hTRPC6 Potency
Counter-ions that a name gives are not always drawn.
One number for each entry, as −log10 of the molar value.

> print(dat)
                                   compound  measured.value
1  N[C@@H]1CN(c2nc3ncc(F)cc3n2Cc2ncc(Cl)cn2)CC[C@H]1F [Example 555]            7.94
2  N#Cc1ccc(Cn2c(N3CCC[C@@]4(CCN4)C3)nc3ccccc32)nc1 [Example 27]            7.13
3  N#Cc1ccc(Cn2c(N3CC[C@H](CN)C3)nc3ccccc32)nc1 [Example 80, hydrochloride]            7.10
4  C[C@@H](c1ccc(C#N)cn1)n1c(N2CCC[C@H](N)C2)nc2ccccc21 [Example 296, hydrochloride]            8.12

Now, please, on to the next compound.
N#Cc1ccc(Cn2c(N3CC[C@H](F)[C@H](N)C3)nc3cc(C(F)(F)F)ccc32)nc1 [Example 107] on human TRPC6 (Homo sapiens) gives pIC50 = 8.10
